# Test Method Notes: chemical genetic growth profiling, strain panel (AID 1159580);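 also: tested at 20 µM; growth read once vehicle control cultures reached saturation at 30 °C; 1 = growth at the plate median or of vehicle wells; lower values mean less growth of the strain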
# Condition: S. cerevisiae deletion strains, growth OD, locus YDR392W, strain spt3, active compounds read low
About 2,000 (36%) of roughly 5,500 compounds were called active. Another 18% or so got no clear call; they are omitted. The list shows a part of the results.
Measurement Name: normalized growth
Numbers only.

{"Molecule": "CC1Cc2ccccc2N1NC(=O)c1ccc(Cl)c(S(N)(=O)=O)c1 (stereo not given)", "normalized growth": 0.973}
{"Molecule": "Cc1ncc(CO)c(CO)c1O", "normalized growth": 1.01}

Each molecule below has a recorded value; state its normalized growth.
1. C[C@@H]1CC[C@@]23CCC4(C)[C@@](C=CC5[C@@]6(C)CC[C@H](O)C(C)(C)C6CC[C@]54C)(OC2=O)C3[C@H]1C (stereo not given in full)
2. CCn1nc(C(=O)O)c(=O)c2cc3c(cc21)OCO3
3. Cc1ccccc1N1C(=O)c2cc(S(N)(=O)=O)c(Cl)cc2NC1C (stereo not given)

1. 1.02
2. 0.987
3. 1.01

Below are some molecules; for each one, tell me its normalized growth.
1. COC1CC(O[C@H]2CC[C@]3(C=O)C4CC[C@]5(C)C(C6=CC(=O)OC6)CC[C@]5(O)C4CC[C@]3(O)C2)OC(C)C1O (stereo not given in full)
2. NCC(O)CC(=O)O (stereo not given)
3. COC(=O)NC(=S)Nc1ccccc1NC(=S)NC(=O)OC
4. CCC(=O)OCC(=O)[C@@]1(OC(=O)CC)[C@@H](C)CC2C3CCC4=CC(=O)C=C[C@]4(C)C3(F)[C@@H](O)C[C@@]21C (stereo not given in full)
5. CC1(C)C(=O)CC[C@@]2(C)C1C[C@@H](O)[C@@]1(C)C3=CC(=O)O[C@@H](c4ccoc4)[C@]3(C)CCC21 (stereo not given in full)

[0.903, 0.892, 0.724, 0.988, 1.03]

* * *

# Test Method Notes: chemical genetic growth profiling, strain panel (AID 1159580);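 also: tested at 20 µM; growth read once vehicle control cultures reached saturation at 30 °C; 1 = growth at the plate median or of vehicle wells; lower values mean less growth of the strain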
# Condition: S. cerevisiae deletion strains, growth OD, locus YDR150W, strain NUM1, active compounds read low
In all, about 5,500 compounds went through this assay and about 2,000 (36%) were called active. About 18% were inconclusive and are not listed. Some of the results follow.
Please assign NOT MET whenever normalized growth is at or above 1, and MET whenever it is below.

Worked examples, 2 compounds total:
{"Compound": "COc1cc(O)c2c(=O)cc(-c3ccc(OC)c(-c4c(O)cc(O)c5c(=O)cc(-c6ccc(O)cc6)oc45)c3)oc2c1", "Assigned Class": "MET"}
{"Compound": "N#Cc1c(Cl)cccc1N1CCC(C(=O)NC(=O)Nc2ccc(Cl)cc2)CC1", "Assigned Class": "NOT MET"}

Lab log: compare recorded normalized growth with 1; is it strictly lower for CC1(C)O[C@@H]2CC3C4C[C@H](F)C5=CC(=O)CC[C@]5(C)C4[C@@H](O)C[C@]3(C)[C@]2(C(=O)CO)O1 (stereo not given in full) ? NOT MET

* * *

# Test Method Notes: chemical genetic growth profiling, strain panel (AID 1159580);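 also: tested at 20 µM; growth read once vehicle control cultures reached saturation at 30 °C; 1 = growth at the plate median or of vehicle wells; lower values mean less growth of the strain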
# Condition: S. cerevisiae deletion strains, growth OD, locus YBL061C, strain skt5
Among all 5,500 compounds or so, about 2,000 (36%) were called active. About 18% were inconclusive and are not listed. Cut-off read from the data, not from the text of the source: active = normalized growth mostly below about 0.91 (no sharp cut-off); inconclusive = no clear call, values can overlap the other calls; inactive = mostly above about 0.92. The list shows a part of the results.
Hello, when you answer, please use one of the following outcomes: 1.0 (active), 0.0 (inactive)

Per the assay record, what outcome was assigned to CCCc1nn(C)c2c(=O)[nH]c(-c3cc(S(=O)(=O)N4CCN(C)CC4)ccc3OCC)nc12 ? 0.0
